- EXPERIMENTAL_SYSTEM: full-length ATR (Homo sapiens, UniProt Q13535)
- Construct: Assays were carried out at 25° C. in the presence of 5 nM full-length ATR
- Sequence (Q13535 whole entry): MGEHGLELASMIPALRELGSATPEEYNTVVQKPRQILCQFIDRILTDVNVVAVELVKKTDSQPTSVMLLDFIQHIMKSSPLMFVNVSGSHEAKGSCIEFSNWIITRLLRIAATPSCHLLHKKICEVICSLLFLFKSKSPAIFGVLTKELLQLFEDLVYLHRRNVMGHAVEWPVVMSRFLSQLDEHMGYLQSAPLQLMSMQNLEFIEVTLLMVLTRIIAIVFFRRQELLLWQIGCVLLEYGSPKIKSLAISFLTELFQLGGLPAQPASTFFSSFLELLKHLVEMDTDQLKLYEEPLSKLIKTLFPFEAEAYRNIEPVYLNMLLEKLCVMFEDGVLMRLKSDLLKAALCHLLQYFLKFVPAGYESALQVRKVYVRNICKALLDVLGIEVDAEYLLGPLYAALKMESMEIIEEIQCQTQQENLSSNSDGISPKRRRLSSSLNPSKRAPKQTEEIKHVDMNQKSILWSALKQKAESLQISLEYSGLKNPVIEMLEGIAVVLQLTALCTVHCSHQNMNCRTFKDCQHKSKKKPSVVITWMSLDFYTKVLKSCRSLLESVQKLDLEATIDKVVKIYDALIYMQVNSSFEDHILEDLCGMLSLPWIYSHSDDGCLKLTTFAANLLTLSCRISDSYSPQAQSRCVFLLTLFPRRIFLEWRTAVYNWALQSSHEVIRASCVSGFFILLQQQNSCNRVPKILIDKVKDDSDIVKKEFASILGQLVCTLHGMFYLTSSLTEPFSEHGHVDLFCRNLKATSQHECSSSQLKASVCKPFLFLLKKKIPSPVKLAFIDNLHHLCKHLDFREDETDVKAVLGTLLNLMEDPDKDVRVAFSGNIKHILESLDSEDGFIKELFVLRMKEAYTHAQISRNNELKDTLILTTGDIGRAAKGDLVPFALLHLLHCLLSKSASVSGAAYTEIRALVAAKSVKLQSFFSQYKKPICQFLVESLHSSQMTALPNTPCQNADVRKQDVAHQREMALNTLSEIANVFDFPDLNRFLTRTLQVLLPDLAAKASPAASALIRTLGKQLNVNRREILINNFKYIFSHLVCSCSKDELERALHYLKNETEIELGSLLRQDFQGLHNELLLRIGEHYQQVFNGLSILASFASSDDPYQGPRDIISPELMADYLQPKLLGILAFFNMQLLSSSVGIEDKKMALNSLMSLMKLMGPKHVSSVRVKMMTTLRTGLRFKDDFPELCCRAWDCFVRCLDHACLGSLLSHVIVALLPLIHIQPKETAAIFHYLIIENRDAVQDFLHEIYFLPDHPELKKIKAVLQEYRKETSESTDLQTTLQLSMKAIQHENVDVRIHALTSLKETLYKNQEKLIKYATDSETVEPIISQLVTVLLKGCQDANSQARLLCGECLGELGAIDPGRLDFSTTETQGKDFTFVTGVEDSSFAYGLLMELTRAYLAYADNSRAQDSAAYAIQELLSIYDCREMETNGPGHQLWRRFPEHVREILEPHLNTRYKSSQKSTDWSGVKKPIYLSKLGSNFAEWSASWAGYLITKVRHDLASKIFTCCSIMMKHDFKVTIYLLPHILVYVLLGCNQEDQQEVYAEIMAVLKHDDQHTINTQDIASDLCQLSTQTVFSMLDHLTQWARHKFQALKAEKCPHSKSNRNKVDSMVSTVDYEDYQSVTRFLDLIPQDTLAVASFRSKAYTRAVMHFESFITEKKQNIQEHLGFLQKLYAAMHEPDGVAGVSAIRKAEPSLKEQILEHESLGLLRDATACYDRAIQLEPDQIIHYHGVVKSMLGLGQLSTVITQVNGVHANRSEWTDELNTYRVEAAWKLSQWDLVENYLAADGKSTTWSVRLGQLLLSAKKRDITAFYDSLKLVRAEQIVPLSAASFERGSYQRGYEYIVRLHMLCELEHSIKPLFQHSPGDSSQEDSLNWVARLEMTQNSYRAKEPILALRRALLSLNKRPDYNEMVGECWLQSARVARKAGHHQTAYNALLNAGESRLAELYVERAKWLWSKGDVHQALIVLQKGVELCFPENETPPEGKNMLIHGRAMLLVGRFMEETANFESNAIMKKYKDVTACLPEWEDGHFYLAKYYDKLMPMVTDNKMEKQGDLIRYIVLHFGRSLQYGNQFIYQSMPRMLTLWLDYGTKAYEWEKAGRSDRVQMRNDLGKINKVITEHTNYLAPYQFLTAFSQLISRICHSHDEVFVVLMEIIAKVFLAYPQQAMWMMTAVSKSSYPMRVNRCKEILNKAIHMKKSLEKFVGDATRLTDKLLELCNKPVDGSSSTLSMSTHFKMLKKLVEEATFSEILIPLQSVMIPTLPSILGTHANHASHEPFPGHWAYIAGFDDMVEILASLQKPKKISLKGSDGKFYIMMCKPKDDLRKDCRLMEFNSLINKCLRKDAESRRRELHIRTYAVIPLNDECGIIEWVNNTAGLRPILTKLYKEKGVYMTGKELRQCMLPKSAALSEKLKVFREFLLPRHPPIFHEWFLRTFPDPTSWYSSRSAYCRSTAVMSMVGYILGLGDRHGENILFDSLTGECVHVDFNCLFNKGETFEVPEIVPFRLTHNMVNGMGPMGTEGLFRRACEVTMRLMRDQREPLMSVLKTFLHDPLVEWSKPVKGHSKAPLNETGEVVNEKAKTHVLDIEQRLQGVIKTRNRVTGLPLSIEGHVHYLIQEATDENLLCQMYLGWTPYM
- ASSAY_PROCEDURE: ATR Inhibition Assay (radioactive-phosphate incorporation)
- Type: biochemical
QUANTITY_KIND: Ki

Worked cases, answers included:
1. CC(C)(c1cc(-c2cnc(N)c(-c3cc(-c4ccccc4)no3)n2)ccn1)S(C)(=O)=O [Compound I-22] | < 1 nM
2. CNCCNc1ccc(-c2nnc(-c3nc(-c4ccnc(C(C)(C)C#N)c4)cnc3N)o2)cc1 [Compound I-117] | < 1 nM
3. CC(C#N)c1cc(-c2cnc(N)c(-c3cc(-c4ccccc4)no3)n2)ccn1 (stereo not drawn) [Compound I-50] | < 1 nM
4. CC(C)(C#N)c1cc(-c2cnc(N)c(-c3nnc(-c4cccc(N5CCC(N)CC5)c4)o3)n2)ccn1 [Compound I-125] | 5 to 20 nM
5. Cc1ccsc1-c1cc(-c2nc(-c3ccnc(C(C)(C)C#N)c3)cnc2N)on1 [Compound I-8] | < 1 nM
6. CCC(C#N)(CC)c1cc(-c2cnc(N)c(-c3cc(-c4ccc(CNC)cc4)no3)n2)ccn1 [Compound I-2] | < 1 nM
7. CC(C)(C(=O)NCCO)c1cc(-c2cnc(N)c(-c3cc(-c4ccccc4)no3)n2)ccn1 [Compound I-46] | < 1 nM
8. CNCc1ccc(-c2cc(-c3nc(-c4ccnc(C(C)(C)C#N)c4)cnc3N)on2)cc1 [Compound I-1] | < 1 nM
9. CC(C)(C#N)c1cc(-c2cnc(N)c(-c3nnc(-c4ccc(CNC5CCCOC5)cc4)o3)n2)ccn1 (stereo not drawn) [Compound I-122] | < 1 nM
10. CC(C)(C(=O)NCCN1CCOCC1)c1cc(-c2cnc(N)c(-c3cc(-c4ccccc4)no3)n2)ccn1 [Compound I-21] | 5 to 20 nM

// query Which Ki value belongs to CC(C)(C#N)c1cc(-c2cnc(N)c(-c3nnc(-c4cccc(C5CCCN5)c4)o3)n2)ccn1 (stereo not drawn) [Compound I-89] ?
// result 5 to 20 nM

// query And the next one, CC(C)(C#N)c1cc(-c2cnc(N)c(-c3cc(-c4ccc(CNCC5COC5)cc4)no3)n2)ccn1 [Compound I-102] ?
// result < 1 nM

// query And the next one, CC(C)(C#N)c1cc(-c2cnc(N)c(-c3cc(-c4ccc(C5CNCCN5)cc4)no3)n2)ccn1 (stereo not drawn) [Compound I-41] ?
// result < 1 nM

// query And the next one, CC(C)(C#N)c1cc(-c2cnc(N)c(-c3nnc(-c4ccc(OCCN5CCCC5)cc4)o3)n2)ccn1 [Compound I-69] ?
// result < 1 nM

// query And the next one, CC(C)(C#N)c1cc(-c2cnc(N)c(-c3nnc(-c4ccc(OCCN)cc4)o3)n2)ccn1 [Compound I-112] ?
// result < 1 nM

// query And the next one, CN1CC(Oc2ccc(-c3nnc(-c4nc(-c5ccnc(C(C)(C)C#N)c5)cnc4N)o3)cc2)C1 [Compound I-121] ?
// result < 1 nM

// query And the next one, CNCc1ccc(-c2nnc(-c3nc(-c4ccnc(C(C)(C)C#N)c4)cnc3N)o2)cc1 [Compound I-4] ?
// result < 1 nM

// query And the next one, CC(C)(C#N)c1cc(-c2cnc(N)c(-c3nnc(-c4ccc(C5COCCN5)cc4)o3)n2)ccn1 (stereo not drawn) [Compound I-99] ?
// result 20 to 100 nM

// query And the next one, CC(N)CNc1ccc(-c2nnc(-c3nc(-c4ccnc(C(C)(C)C#N)c4)cnc3N)o2)cc1 (stereo not drawn) [Compound I-130] ?
// result < 1 nM

// query And the next one, CC(C)(C#N)c1cc(-c2cnc(N)c(-c3nnc(-c4ccc5c(c4)CNCC5)o3)n2)ccn1 [Compound I-55] ?
// result < 1 nM

// query And the next one, C[C@H](N)c1ccc(-c2nnc(-c3nc(-c4ccnc(C(C)(C)C#N)c4)cnc3N)o2)cc1 [Compound I-44] ?
// result < 1 nM

// query And the next one, COc1cccc(C)c1-c1cc(-c2nc(-c3ccnc(C4(C#N)CCNCC4)c3)cnc2N)on1 [Compound I-29] ?
// result 20 to 100 nM

// query And the next one, CC(C)(C#N)c1cc(-c2cnc(N)c(-c3nnc(-c4ccc(OC5CNC5)cc4)o3)n2)ccn1 [Compound I-113] ?
// result < 1 nM

// query And the next one, CNCCN(C)c1ccc(-c2nnc(-c3nc(-c4ccnc(C(C)(C)C#N)c4)cnc3N)o2)cc1 [Compound I-78] ?
// result < 1 nM

// query And the next one, CC(C)(C#N)c1nccc(-c2cnc(N)c(-c3cc(-c4ccc(CNCC5COC5)cc4)no3)n2)c1F [Compound I-139] ?
// result 5 to 20 nM

// query And the next one, CC(C)(C#N)c1cc(-c2cnc(N)c(-c3cc(-c4ccc(O)cc4)no3)n2)ccn1 [Compound I-51] ?
// result < 1 nM

// query And the next one, Cc1ccccc1-c1cc(-c2nc(-c3ccnc(C4(C#N)CCNCC4)c3)cnc2N)on1 [Compound I-25] ?
// result 5 to 20 nM

// query And the next one, CC(C)(C(=O)N1CCNCC1)c1cc(-c2cnc(N)c(-c3cc(-c4ccccc4)no3)n2)ccn1 [Compound I-20] ?
// result 5 to 20 nM

// query And the next one, CC(C)(C#N)c1cc(-c2cnc(N)c(-c3nnc(-c4ccc(NCC5CNC5)cc4)o3)n2)ccn1 [Compound I-104] ?
// result < 1 nM

// query And the next one, CN(C)CCNC(=O)C(C)(C)c1cc(-c2cnc(N)c(-c3cc(-c4ccccc4)no3)n2)ccn1 [Compound I-85] ?
// result 5 to 20 nM

* * *

- EXPERIMENTAL_SYSTEM: full-length ATR (Homo sapiens, UniProt Q13535)
- Construct: Assays were carried out at 25° C. in the presence of 5 nM full-length ATR
- ASSAY_PROCEDURE: ATR Inhibition Assay (radioactive-phosphate incorporation)
- Type: biochemical
QUANTITY_KIND: Ki

Worked cases, answers included:
1. CC(C)(C#N)c1cc(-c2cnc(N)c(-c3cc(-c4ccc(CN[C@@H]5CCOC5)cc4)no3)n2)ccn1 [Compound I-17] | < 1 nM
2. CC(C)(C#N)c1cc(-c2cnc(N)c(-c3nnc(-c4cccc(CCN)c4)o3)n2)ccn1 [Compound I-66] | < 1 nM
3. CC(C)(C#N)c1cc(-c2cnc(N)c(-c3nnc(-c4ccc(N5CCCC5CN)cc4)o3)n2)ccn1 (centres unmarked) [Compound I-68] | 5 to 20 nM
4. CC(C)(C#N)c1cc(-c2cnc(N)c(-c3nnc(-c4ccc(CCN)cc4)o3)n2)ccn1 [Compound I-57] | < 1 nM

Please examine the following record next.
// query Which Ki value belongs to CNCc1ccc(-c2cc(-c3nc(-c4ccnc(C(C)(C)S(C)(=O)=O)c4)cnc3N)on2)cc1 [Compound I-14] ?
// result < 1 nM

* * *

- EXPERIMENTAL_SYSTEM: full-length ATR (Homo sapiens, UniProt Q13535)
- Construct: Assays were carried out at 25° C. in the presence of 5 nM full-length ATR
- ASSAY_PROCEDURE: ATR Inhibition Assay (radioactive-phosphate incorporation)
- Format: biochemical
pKi: −log10 of the molar value.
QUANTITY_KIND: pKi

1) CC(C)(C#N)c1cc(-c2cnc(N)c(-c3nnc(-c4ccc(NCCN5CCOCC5)cc4)o3)n2)ccn1 | > 9.00

// query What value of pKi on full-length ATR (Homo sapiens, UniProt Q13535) does "CC(C)(C(=O)N1CCC1)c1cc(-c2cnc(N)c(-c3cc(-c4ccccc4)no3)n2)ccn1" have?
// result 7.70 to 8.30

// query And the next one, "Nc1ncc(-c2ccnc(CO)c2)nc1-c1cc(-c2ccc(CNC3CCOCC3)cc2)no1" ?
// result > 9.00

// query And the next one, "CCCN(CCN(C)C)C(=O)c1cc(-c2cnc(N)c(-c3cc(-c4ccccc4)no3)n2)ccn1" ?
// result 7.70 to 8.30

* * *

- EXPERIMENTAL_SYSTEM: full-length ATR (Homo sapiens)
- Construct: Assays were carried out at 25° C. in the presence of 5 nM full-length ATR
- ASSAY_PROCEDURE: ATR Inhibition Assay (radioactive-phosphate incorporation)
- Type: biochemical
Quick list: Ki per entry.

Worked cases, answers included:
1) COCCNC(=O)C(C)(C)c1cc(-c2cnc(N)c(-c3cc(-c4ccccc4)no3)n2)ccn1 | 5 to 20 nM
2) CNCc1ccc(-c2cc(-c3nc(-c4ccnc(C(C)(C)C(N)=O)c4)cnc3N)on2)cc1 | < 1 nM
3) CN(C)C1CN(c2ccc(-c3nnc(-c4nc(-c5ccnc(C(C)(C)C#N)c5)cnc4N)o3)cc2)C1 | < 1 nM

// query Which Ki value belongs to CNCc1ccc(-c2cc(-c3nc(-c4ccnc(C(C)S(C)(=O)=O)c4)cnc3N)on2)cc1 (stereo not drawn) ?
// result < 1 nM

// query And the next one, "N#CC1(c2cc(-c3cnc(N)c(-c4cc(-c5ccccc5)no4)n3)ccn2)CCOCC1" ?
// result < 1 nM
